// provenance: PubChem BioAssay (NCI)

# System: SK-MEL-5 melanoma
# test.details: NCI-60 one-dose screen, 48 h (100 = growth as untreated, 0 = no growth, -100 = all killed)
# measurement.parameters: 10 µM unless noted
The panel holds about 83,000 compounds, 20% with a hit somewhere; the sample as a whole holds those more often. Activity calls are given as the source filed them. How the source made its calls: active means growth percent below 10; inactive means the rest.
measure.name: growth

Query string: Tell me the measured growth of Cn1cc(-c2nonc2-c2c[nH]c3ccc(F)cc23)c2cccnc21 , please.
Result string: 78.2% (inactive)

Query string: Tell me the measured growth of COc1cccc(-c2nn(C(C)(C)C)cc2-c2ccnc(NCCCNS(=O)(=O)c3ccc(C)cc3)c2)c1 , please.
Result string: 100% (inactive)

Query string: Tell me the measured growth of C=C(C)[C@@H]1CC[C@]2(C(=O)OC)CC[C@]3(C)[C@H](CC[C@@H]4[C@@]5(C)C/C(=C/c6ccc(OC)cc6)C(=O)C(C)(C)[C@@H]5CC[C@]43C)[C@@H]12 , please.
Result string: 95.8% (inactive)

Query string: Tell me the measured growth of CCOC(=O)c1sc2nc(-c3cccc(O)c3)nc(N3CCOCC3)c2c1C , please.
Result string: 52.7% (inactive)

Query string: Tell me the measured growth of C=CC(=O)Nc1cccc(Nc2nc(SC)nc(-c3cccc([N+](=O)[O-])c3)c2C#N)c1 , please.
Result string: 55.2% (inactive)

Query string: Tell me the measured growth of CC(=O)O[C@H]1CC[C@]2(C)[C@H]3CC=C4[C@@H]5CC(C)(C)CC[C@]5(C(=O)NCCNCCN)CC[C@@]4(C)[C@]3(C)CC[C@H]2C1(C)C , please.
Result string: 71.4% (inactive)

Query string: Tell me the measured growth of O=C(N/N=C/c1ccccc1O)c1ccccc1Nc1ccnc(C(F)(F)F)c1 , please.
Result string: -64.5% (active)

Query string: Tell me the measured growth of CC(=O)OCCC/C(=C/c1cc2ccccc2c2ccccc12)[N+](=O)[O-] , please.
Result string: -100% (active)

Query string: Tell me the measured growth of CC(O)CN(CC(C)O)c1ccc2c(c1)Cc1cc([N+](=O)[O-])ccc1-2 (centres undefined) , please.
Result string: 103% (inactive)

Query string: Tell me the measured growth of COc1ccc(-c2cc(C(=O)N=Nc3c(O)[nH]c4ccc(Br)cc34)no2)cc1 , please.
Result string: 97.4% (inactive)

Query string: Tell me the measured growth of Cn1ccnc1C(=O)/C=C/c1ccccc1 , please.
Result string: 15% (inactive)

Query string: Tell me the measured growth of C=C1c2nc3ccccc3n2C=C(c2cccc(Cl)c2)N1Cc1ccc(OC)cc1 , please.
Result string: -31.1% (active)

Query string: Tell me the measured growth of CCOC(=O)n1cc(-c2nonc2-c2cn(C)c3ncccc23)c2ccccc21 , please.
Result string: 77.3% (inactive)

Query string: Tell me the measured growth of N#Cc1c(-c2ccc(Cl)cc2)nc(N/N=C/c2cccc(Br)c2)nc1N1CCOCC1 , please.
Result string: 85.6% (inactive)

Query string: Tell me the measured growth of O=C1NC(=S)N[C@H]1CC(=O)n1cnc2ccccc21 , please.
Result string: 99.1% (inactive)

Query string: Tell me the measured growth of Cc1cc(C)nc(SC2=C(Nc3cc(Cl)ccc3O)C(=O)N(Cc3ccccc3)C2=O)n1 , please.
Result string: 49% [30 µM] (inactive)

Query string: Tell me the measured growth of CCOC(=O)c1c(CN2CCN(C)CC2)nc2ccc(Cl)cc2c1-c1ccccc1 , please.
Result string: 18.3% (inactive)

Query string: Tell me the measured growth of Cc1ccc(C2Oc3ccccc3C3CC(c4cccs4)=NN32)cc1 (centres undefined) , please.
Result string: 96.3% (inactive)

Query string: Tell me the measured growth of C=CC(=O)Nc1cccc(-c2nc(SC)nc(NCCc3ccc(OC)c(OC)c3)c2C#N)c1 , please.
Result string: -29.2% (active)
